B1: ZNF649 (parent)
chain: DECEKAYFYMSCLVKHKRIHSREK

Variants of: B1
Assay: protein stability index of a GFP-peptide fusion (GPS, HEK-293T) (PSI 1-6); higher = more stable;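 further: lentivirally expressed fusions sorted by FACS into six bins by GFP to DsRed ratio, PSI derived from sequencing read proportions per bin multiplied by bin number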
Conditions: c terminus: a fixed tail appended
Note to self: values exactly at 2 are True. So protein stability index at or above 2 is True, below is False.

In [3]: df
Out[3]:
    alteration  assigned_label
 0        K15H            True
 1        S21R            True
 2        I19Y            True
 3         E2G            True
 4        K17D            True
 5        L13N            True
 6        H20R            True
 7        K24F           False
 8        H16Q            True
 9        H16R            True
10        L13I            True
11        M10V            True
12         A6H            True
13        K17C           False
14         C3H            True
15        I19C            True
16        K15T            True
17        R22V            True
18         A6L            True
19        M10R            True
20        M10P            True
21         E4S            True
22        V14D            True
23        I19P            True
24        R18H            True
25         E2P            True
26        L13T            True
27         D1W            True
28         K5W            True
29        R18L           False
30        R22M            True
31        H16A            True
32        M10D            True
33        R18D            True
34        R22C            True
35        L13A            True
36        C12N            True
37        L13C            True
38        K15S            True
39        H16W            True
40         A6I           False
41        K24R            True
42        S11W           False
43        L13E            True
44         Y9C            True
45         F8H            True
46        R18Q            True
47        I19G            True
48        I19L            True
49        K15I            True
50         D1T            True
51        R22W           False
52        E23C            True
53        S11E            True
54        E23H            True
55         C3T            True
56         Y7F            True
57         Y7M            True
58        S21F           False
59         C3N            True
60        M10Y            True
61         A6Y           False
62         K5F           False
63        K17M           False
64         D1G           False
65         E4M           False
66        S21C            True
67         E2C           False
